Items are presented alongside their recorded T/C.
Tested on: CD2F1 mice, L1210 leukemia ip, survival T/C
Test: NCI In Vivo Anticancer Drug Screen. Data for tumor model L1210 Leukemia (intraperitoneal) in CD2F1 (CDF1) mice
Details: endpoint: mean survival time; dose: 300.0 mg/kg/injection; schedule: Q01DX001 (ip); vehicle: saline; higher = longer survival
Toxic doses and inconclusive results are not listed.

Solved entries:
C=C(CC)C1(C)C(=O)NC(=O)NC1=O
101 % of control
CN1CCN(CC(=O)N2c3ccccc3Sc3cc4ccccc4cc32)CC1
96 % of control
CC1=C2CCOC2=Nc2ccccc2O1
97 % of control
NC1=NC(=S)CS1
87 % of control

Need T/C of CCCc1nc(/N=N/N(C)C)c(C(N)=O)[nH]1 , thanks.
122 % of control

---

System: CD2F1 mice, L1210 leukemia ip, survival T/C
Experiment: NCI In Vivo Anticancer Drug Screen. Data for tumor model L1210 Leukemia (intraperitoneal) in CD2F1 (CDF1) mice
Conditions: endpoint: mean survival time; dose: 100.0 mg/kg/injection; schedule: Q01DX001 (ip); vehicle: saline
Inconclusive results and toxic doses are left out. Rule for the calls: active = survival T/C of 150% or more; inactive = T/C below 125% in these data.
API: response.call in active, inactive

O=CNc1ccc(C(=O)O)c(O)c1
inactive
COC(=O)c1cc(-c2ccccc2)nc2c1ccc1ccccc12
inactive
O=C1C(n2ccc(=O)n(C(=O)c3ccccc3)c2=O)CCN1CCO (stereo unspecified)
inactive
COC1OC(CCl)C(Cl)C2OS(=O)(=O)OC12 (stereo unspecified)
inactive
COC1(OC)C2(Cl)CCC1(Cl)CC2
inactive

What is the recorded call for this compound in the test? COC(=O)C(O)C(O)C(O)C(O)C(O)CO (stereo unspecified)
inactive

What is the recorded call for this compound in the test? O=C(O)O.O=C(O)O.O=C(O)O.[Co]
inactive

What is the recorded call for this compound in the test? O=[N+]([O-])c1ccccc1N/N=C/c1ccccc1
inactive

What is the recorded call for this compound in the test? CC1=CCCC(C)C2CC(C(C)(C)O)CC12 (stereo unspecified)
inactive

What is the recorded call for this compound in the test? O=c1ccn(C2OC(CCl)C(O)C2O)c(=O)[nH]1 (stereo unspecified)
inactive

What is the recorded call for this compound in the test? COc1ccc(CNCCO)cc1O
inactive

What is the recorded call for this compound in the test? NC(=O)NC(S(=O)(=O)O)S(=O)(=O)O
inactive

What is the recorded call for this compound in the test? O=c1[nH]c2c(c(=O)n1-c1ccccc1)CCCS2
inactive

What is the recorded call for this compound in the test? COC1(O)C(=O)c2ccccc2OC1(OC)c1ccc(C)cc1 (stereo unspecified)
inactive

What is the recorded call for this compound in the test? COc1ccc(/C=C2/N=C(C)OC2=O)cc1OC(C)=O
inactive

---

Test system: CD2F1 mice, L1210 leukemia ip, survival T/C
Experiment: NCI In Vivo Anticancer Drug Screen. Data for tumor model L1210 Leukemia (intraperitoneal) in CD2F1 (CDF1) mice
Details: endpoint: mean survival time; dose: 200.0 mg/kg/injection; schedule: Q04DX003 (ip); vehicle: Klucel (hydroxypropylcellulose) (HPC); higher = longer survival
Procedure: The antitumor activity of compounds was measured in mice bearing transplantable tumors. Survival or tumor size were measured and the results are expressed as the measurement made in the treated group (T) divided by the measurement made in the vehicle treated control group (C). The tumor model used in this assay is L1210 Leukemia (intraperitoneal) in CD2F1 (CDF1) mice
Inconclusive results and toxic doses are left out.
Items are presented alongside their recorded T/C.

CC(=O)OCCN1C(=O)c2ccccc2C1=O
94 % of control

Need T/C of O=C1CC(c2ccccc2)=NN1c1ccccc1 , thanks.
95 % of control

Need T/C of CS(=O)(=O)c1nnc(-c2ccccc2)s1 , thanks.
90 % of control

Need T/C of CC(C)=CC(=O)CC(O)(C(F)(F)F)C(F)(F)Cl (stereo unspecified) , thanks.
93 % of control

Need T/C of OC(CI)C1OCOC2COCOC21 (stereo unspecified) , thanks.
94 % of control
